Please go through the items and note down their inhibition.
# System: Botulinum neurotoxin type F light chain protease (Clostridium botulinum)
# experimental protocol: Botulinum neurotoxin type F light chain protease inhibition, multiplex microsphere flow cytometry, validation set (AID 588459)
# protocol conditions: multiplex microsphere protease substrate cleavage assay, at 10 µM, active compounds read high
Numbers only, in %.

Q: # inhibition lookup, item COc1cc2cc(C(=O)O)n(C)c2c(OC)c1OC
A: 1.3

Q: # inhibition lookup, item CCCNC(=O)NS(=O)(=O)c1ccc(Cl)cc1
A: 5.6

Q: # inhibition lookup, item CCOC(=O)C1=C(C)NC(C)=C(C(=O)OC)C1c1cccc([N+](=O)[O-])c1 (stereo unspecified)
A: -1.6

Q: # inhibition lookup, item c1cnc2c(c1)ccc1ncccc12
A: -4.1

Q: # inhibition lookup, item OC(CCCN1CCC(O)(c2ccc(Cl)cc2)CC1)c1ccc(F)cc1 (stereo unspecified)
A: -1.7

# next compound below
Q: # inhibition lookup, item Cc1oncc1C(=O)Nc1ccc(C(F)(F)F)cc1
A: 0.9
